system: P70S6K (T412E mutant) (Homo sapiens, UniProt P23443, T412E)
Sequence (P23443 whole entry T412E): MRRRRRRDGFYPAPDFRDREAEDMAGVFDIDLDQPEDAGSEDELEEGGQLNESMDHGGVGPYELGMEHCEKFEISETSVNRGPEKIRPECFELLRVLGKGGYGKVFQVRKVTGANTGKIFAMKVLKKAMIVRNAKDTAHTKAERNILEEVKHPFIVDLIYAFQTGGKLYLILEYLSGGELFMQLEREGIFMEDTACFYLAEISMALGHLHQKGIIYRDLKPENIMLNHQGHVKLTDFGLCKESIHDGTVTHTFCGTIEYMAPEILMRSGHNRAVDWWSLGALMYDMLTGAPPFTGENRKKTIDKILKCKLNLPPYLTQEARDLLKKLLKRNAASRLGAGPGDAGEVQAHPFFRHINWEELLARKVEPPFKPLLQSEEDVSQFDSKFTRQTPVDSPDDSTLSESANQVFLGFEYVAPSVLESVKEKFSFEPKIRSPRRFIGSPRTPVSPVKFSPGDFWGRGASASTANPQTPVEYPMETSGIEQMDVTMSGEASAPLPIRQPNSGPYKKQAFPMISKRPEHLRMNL
protocolNotes: P70S6K enzyme assay
settings: 24 μM ATP, 90 min at 25° C., mobility shift (Caliper)
Give IC50 for every item shown.

response.value for CC(C)Oc1c(N)ncnc1N1CCC(c2nc(-c3ccnc(C(F)(F)F)c3)cn2CCN(C)C)CC1 (field: IC50) = 3 to 15 nM

response.value for CC(C)c1cc(-c2cn(CCN3CCC3)c(C3CCN(c4ncnc(N)c4C4CC4)CC3)n2)ccn1 (field: IC50) = 3 to 15 nM

response.value for Cc1cc(-c2cn(CCN3CCC3)c(C3CCN(c4ncnc(N)c4-c4cccnc4)CC3)n2)ccc1F (field: IC50) = 3 to 15 nM

response.value for CCc1c(N)ncnc1N1CCC(c2nc(-c3ccnc(C(F)(F)F)c3)cn2CCN(C)C)CC1 (field: IC50) = 3 to 15 nM

response.value for CCOc1c(N)ncnc1N1CCC(c2nc(-c3ccc(F)c(Cl)c3)cn2CCN(C)C)CC1 (field: IC50) = < 3 nM

response.value for CCNCCn1cc(-c2ccc(F)c(C(F)(F)F)c2)nc1C1CCN(c2ncnc(N)c2C(C)C)CC1 (field: IC50) = 3 to 15 nM

response.value for Cc1cc(-c2cn(CCN(C)C)c(C3CCN(c4ncnc(N)c4Br)CC3)n2)ccc1F (field: IC50) = < 3 nM

response.value for Cc1cc(-c2cn(CCN(C)C)c(C3CCN(c4ncnc(N)c4Cl)CC3)n2)ccc1F (field: IC50) = < 3 nM

###

system: P70S6K (T412E mutant) (Homo sapiens, UniProt P23443, T412E)
protocolNotes: P70S6K enzyme assay
settings: 24 μM ATP, 90 min at 25° C., mobility shift (Caliper)
Give IC50 for every item shown.

response.value for CC(C)c1cc(-c2cn(CCN3CCC3)c(C3CCN(c4ncnc(N)c4C(C)C)CC3)n2)ccn1 (field: IC50) = 3 to 15 nM

response.value for CC(C)Oc1c(N)ncnc1N1CCC(c2nc(-c3ccnc(C(C)C)c3)cn2CCN2CCC2)CC1 (field: IC50) = 3 to 15 nM

response.value for CN(C)CCn1cc(-c2ccc(F)c(C(F)(F)F)c2)nc1C1CCN(c2ncnc(N)c2Cl)CC1 (field: IC50) = < 3 nM

response.value for CN(C)CCn1cc(-c2ccnc(C(F)(F)F)c2)nc1C1CCN(c2ncnc(N)c2C(N)=O)CC1 (field: IC50) = > 15 nM

response.value for CN(C)CCn1cc(-c2ccnc(C(F)(F)F)c2)nc1C1CCN(c2ncnc(N)c2C#N)CC1 (field: IC50) = < 3 nM

response.value for Cc1cc(-c2cn(CC3CN(C)C3)c(C3CCN(c4ncnc(N)c4Cl)CC3)n2)ccc1F (field: IC50) = 3 to 15 nM

response.value for CN(C)CCn1cc(-c2ccnc(C(F)(F)F)c2)nc1C1CCN(c2ncnc(N)c2Cl)CC1 (field: IC50) = < 3 nM

response.value for Cc1cc(-c2cn(CCN3CCC3)c(C3CCN(c4ncnc(N)c4C4CC4)CC3)n2)ccc1F (field: IC50) = < 3 nM

response.value for CC(C)c1cc(-c2cn(CCN3CCC3)c(C3CCN(c4ncnc(N)c4C4CCC4)CC3)n2)ccn1 (field: IC50) = 3 to 15 nM

response.value for CCOc1c(N)ncnc1N1CCC(c2nc(-c3ccnc(C(F)(F)F)c3)cn2CCN(C)C)CC1 (field: IC50) = 3 to 15 nM

response.value for CC(C)c1cc(-c2cn(CCN3CCC3)c(C3CCN(c4ncnc(N)c4OCC(F)(F)F)CC3)n2)ccn1 (field: IC50) = 3 to 15 nM

response.value for Cc1cc(-c2cn(CCN3CCC3)c(C3CCN(c4ncnc(N)c4-c4ccncc4)CC3)n2)ccc1F (field: IC50) = 3 to 15 nM

response.value for Cc1cc(-c2cn(CCNCCCCl)c(C3CCN(c4ncnc(N)c4C(C)C)CC3)n2)ccc1F (field: IC50) = < 3 nM

response.value for CC(C)c1cc(-c2cn(CCN3CCC3)c(C3CCN(c4ncnc(N)c4-c4cccnc4)CC3)n2)ccn1 (field: IC50) = 3 to 15 nM

response.value for CC(C)c1c(N)ncnc1N1CCC(c2nc(-c3ccnc(C(F)(F)F)c3)cn2CCN2CCC2)CC1 (field: IC50) = < 3 nM

response.value for Cc1cc(-c2cn(CCN3CCC3)c(C3CCN(c4ncnc(N)c4C(C)C)CC3)n2)ccc1F (field: IC50) = 3 to 15 nM

response.value for CC(C)c1cc(-c2cn(CCN3CCC3)c(C3CCN(c4ncnc(N)c4-c4ccccc4)CC3)n2)ccn1 (field: IC50) = < 3 nM

response.value for Cc1cc(-c2cn(CCN3CCC3)c(C3CCN(c4ncnc(N)c4-c4ccn[nH]4)CC3)n2)ccc1F (field: IC50) = 3 to 15 nM

response.value for CC(C)c1cc(-c2cn(CCN3CCC3)c(C3CCN(c4ncnc(N)c4-c4ccncc4)CC3)n2)ccn1 (field: IC50) = 3 to 15 nM

response.value for CN(C)CCn1cc(-c2ccnc(C(F)(F)F)c2)nc1C1CCN(c2ncnc(N)c2Br)CC1 (field: IC50) = < 3 nM

response.value for CCc1c(N)ncnc1N1CCC(c2nc(-c3ccc(F)c(C)c3)cn2CCN2CCC2)CC1 (field: IC50) = < 3 nM

response.value for CCOc1c(N)ncnc1N1CCC(c2nc(-c3ccnc(C(C)C)c3)cn2CCN2CCC2)CC1 (field: IC50) = 3 to 15 nM

response.value for CC(C)c1cc(-c2cn(CCN3CCC3)c(C3CCN(c4ncnc(N)c4C=O)CC3)n2)ccn1 (field: IC50) = < 3 nM

response.value for Cc1cc(-c2cn(CCN3CCC3)c(C3CCN(c4ncnc(N)c4Cl)CC3)n2)ccc1F (field: IC50) = < 3 nM
